- Tested on: OVCAR-4 ovarian
- measurement notes: NCI tumour cell line growth inhibition, 48 h
Record form. Attribute: TGI. Fill in for each entry.
Quick reminder: number only, in µM, skip the unit.

Query string: Determine reported TGI for CN(c1ccccc1)C(c1ccccc1)C(O)c1ccccc1 (centres undefined) ; test system: OVCAR-4 ovarian.
Result string: 34.5

Query string: Find the measured TGI of COc1cc(-c2coc3c(OC)c(OC4OC(CO)C(O)C(O)C4O)c(OC)cc3c2=O)cc(OC)c1C (centres undefined) with OVCAR-4 ovarian as test system.
Result string: 63.2

Query string: Report value: TGI, system: OVCAR-4 ovarian, molecule: CCOC(=O)n1cncc1CC(NC(=O)Cc1c(C(=O)C=C(C)C)[nH]c2ccccc12)C(=O)OC (centres undefined)
Result string: 37.9

Query string: Jot down TGI (OVCAR-4 ovarian) of C=C1C(=O)OC2C1C(OC(=O)/C(C)=C/C)CC1(C)C(=O)CCC(=C)C21 (centres undefined) .
Result string: 30.3

Query string: Fetch value of TGI on OVCAR-4 ovarian for CCOC(=O)Oc1c(OC)cc(C(=O)O[C@@H]2C[C@@H]3CN4CCc5c([nH]c6cc(OC)ccc56)[C@H]4C[C@@H]3[C@H](C(=O)OC)[C@H]2OC)cc1OC .
Result string: 19.8

Query string: Under OVCAR-4 ovarian: report TGI of O=C1CCC2(C=C(Br)C(=O)C(Br)=C2)O1 .
Result string: 4.34

---

- Tested on: T-47D breast
- measurement notes: NCI tumour cell line growth inhibition, 48 h
observable: GI50

Query string: Using the record for Cc1cc2c(F)c(Oc3ncnn4cc(OC[C@@H](C)OC(=O)[C@H](C)N)c(C)c34)ccc2[nH]1 , state its measured GI50.
Result string: 13.4 µM

Query string: Return value of GI50 for input COc1nc(C)cc2c(=O)n(-c3ccccc3)n(CCCN3CCN(c4ccc(Cl)cc4)CC3)c(=O)c12 , no commentary.
Result string: > 50 µM

Query string: Please report GI50 for the following compound: CC1=Cc2cc3[n-]c(cc4nc(cc5[n-]c(cc1n2)cc5C)C(C)=C4CCC(=O)O)c(CCC(=O)O)c3C.[Pd+2]
Result string: > 100 µM

Query string: Give the measured GI50 for S=C(N/N=C/c1ccccn1)Nc1ccccn1
Result string: 1.93 µM

Query string: Identify measured GI50 corresponding to O=[N+]([O-])/C=C/c1c[nH]c2ccccc12
Result string: 15 µM

Query string: Specify measured GI50 for O=C1c2ccccc2-c2c1c1ccccc1c(=O)n2CCCN1CCOCC1 .
Result string: 19.6 µM

Query string: Entry CC(NNC(=S)N1CCCCCC1)c1ccc2ccccc2n1 (stereo unspecified) needs its GI50 filled in; supply it.
Result string: 1.91 µM

Query string: Give a short answer stating reported GI50 for Cc1cc(S(=O)(=O)Nc2nnc(-c3ccccc3)c(-c3ccccc3)n2)c(SCc2ccccc2)cc1Cl .
Result string: 23.8 µM

Query string: Check the records and state GI50 for O=C(Nc1ccc(Cl)cc1)c1cc2ccccc2cc1O
Result string: 1.11 µM

Query string: Answer with the recorded GI50 for the compound listed here: Nc1ccccc1C#C/C=C\C#Cc1ccc(Cl)cc1Cl
Result string: 18.9 µM

Query string: Dear colleague, please send me the reported GI50 for S=C(Nc1ccc(Cl)cc1)Nc1ccc(-c2nc3ccccc3[nH]2)cc1 when you can.
Result string: 5.34 µM
